TARGET_OR_SYSTEM: Brd4 bromodomain 1 (Homo sapiens)
Construct: made in house; host or cells: E. coli BL21(DE3)
ASSAY_NOTES: Inhibition of binding of tetra-acetylated histone H4 and Brd4 bromodomain 1 by TR-FRET
PROTOCOL_CONDITIONS: His-tagged bromodomain 200 nM, biotinylated tetra-acetylated histone H4 peptide 25-50 nM, 2 hours at room temperature
MEASURED_ATTRIBUTE: FRET activity (<50 uM)

// below: answered molecules
>  <CHEMICAL_STRUCTURE>
COc1cc2nc(-c3cc(C)c(OCCO)c(C)c3)[nH]c(=O)c2cc1OC

>  <OBSERVED>
Inactive

$$$$
>  <CHEMICAL_STRUCTURE>
COc1cc(OC)c2c(=O)[nH]c(-c3cc(C)c(OCc4ccccc4)c(C)c3)nc2c1

>  <OBSERVED>
Inactive

$$$$
>  <CHEMICAL_STRUCTURE>
COc1cc(OC)c2c(=O)[nH]c(-c3cc(C(C)(C)C)c(O)c(C(C)(C)C)c3)nc2c1

>  <OBSERVED>
Inactive

$$$$
>  <CHEMICAL_STRUCTURE>
COc1cc(OC)c2c(=O)[nH]c(-c3cc(C)c(OC)c(C)c3)nc2c1

>  <OBSERVED>
Active

$$$$
>  <CHEMICAL_STRUCTURE>
CCCNC(=O)OCCOc1c(C)cc(-c2nc3cc(OC)cc(OC)c3c(=O)[nH]2)cc1C

>  <OBSERVED>
Active

$$$$

Q: Notebook: pull reported FRET activity (<50 uM) for Brd4 bromodomain 1 (Homo sapiens), entry `Cc1cc(-c2nc3cc(Cl)cc(Cl)c3c(=O)[nH]2)cc(C)c1OCCO`
A: Active

Q: Reported FRET activity (<50 uM) for Brd4 bromodomain 1 (Homo sapiens), given `CN(C)c1ccc(-c2nc3ccccc3c(=O)[nH]2)c2ccccc12` ?
A: Inactive

Q: # returns recorded FRET activity (<50 uM) (system: Brd4 bromodomain 1 (Homo sapiens)) for `COc1cc(OC)c2c(=O)[nH]c(-c3ccc(O)c(CCO)c3)nc2c1`
A: Active

----------
TARGET_OR_SYSTEM: Brd4 bromodomain 1 (Homo sapiens)
Construct: made in house; host or cells: E. coli BL21(DE3)
ASSAY_NOTES: Inhibition of binding of tetra-acetylated histone H4 and Brd4 bromodomain 1 by TR-FRET
PROTOCOL_CONDITIONS: His-tagged bromodomain 200 nM, biotinylated tetra-acetylated histone H4 peptide 25-50 nM, 2 hours at room temperature
MEASURED_ATTRIBUTE: FRET activity (<50 uM)

>  <CHEMICAL_STRUCTURE>
COCCOc1c(C)cc(-c2nc3cc(OC)cc(OC)c3c(=O)[nH]2)cc1C

>  <TARGET_OR_SYSTEM>
Brd4 bromodomain 1 (Homo sapiens)

>  <OBSERVED>
Active

$$$$
>  <CHEMICAL_STRUCTURE>
COc1cc(OC)c2c(=O)[nH]c(-c3cc(C)c(OCCN4CCOCC4)c(C)c3)cc2c1

>  <TARGET_OR_SYSTEM>
Brd4 bromodomain 1 (Homo sapiens)

>  <OBSERVED>
Active

$$$$
>  <CHEMICAL_STRUCTURE>
COc1ccc(NC(=O)NCCOc2c(C)cc(-c3nc4cc(OC)cc(OC)c4c(=O)[nH]3)cc2C)cc1

>  <TARGET_OR_SYSTEM>
Brd4 bromodomain 1 (Homo sapiens)

>  <OBSERVED>
Inactive

$$$$
>  <CHEMICAL_STRUCTURE>
COc1cc2cc(-c3cc(C)c(O)c(C)c3)[nH]c(=O)c2c(OC)c1CN1CCOCC1

>  <TARGET_OR_SYSTEM>
Brd4 bromodomain 1 (Homo sapiens)

>  <OBSERVED>
Active

$$$$
>  <CHEMICAL_STRUCTURE>
COc1cc(OC)c2c(=O)[nH]c(-c3cccc(-c4ccc(SC)cc4)n3)nc2c1

>  <TARGET_OR_SYSTEM>
Brd4 bromodomain 1 (Homo sapiens)

>  <OBSERVED>
Inactive

$$$$

Q: Please provide the recorded FRET activity (<50 uM) for `COc1ccc(C(=O)NCCOc2c(C)cc(-c3nc4cc(OC)cc(OC)c4c(=O)[nH]3)cc2C)cc1` , tested on Brd4 bromodomain 1 (Homo sapiens).
A: Inactive

Q: State its FRET activity (<50 uM) on Brd4 bromodomain 1 (Homo sapiens): `COc1cc2nc(-c3cc(C)c(O)c(C)c3)[nH]c(=O)c2cc1OC`
A: Active

Q: Item: `COc1cc(OC)c2c(=O)[nH]c(-c3ccc(OCC(=O)O)cc3)nc2c1` Test system: Brd4 bromodomain 1 (Homo sapiens) Read-out: FRET activity (<50 uM) Value: ?
A: Active

Q: Lab note: need FRET activity (<50 uM) for `COc1cc(OC)c2c(=O)[nH]c(-c3ccccn3)nc2c1` on Brd4 bromodomain 1 (Homo sapiens), anyone have it?
A: Active

Q: For the record `COc1cc(OC)c2c(=O)[nH]c(-c3ccc(N(C)C)c4ccccc34)nc2c1` , what value of FRET activity (<50 uM) is listed for Brd4 bromodomain 1 (Homo sapiens)?
A: Inactive

Q: Recorded FRET activity (<50 uM) for `COc1cc(OC)c2c(=O)[nH]c(-c3cc(C)c(OCCNS(C)(=O)=O)c(C)c3)nc2c1` with Brd4 bromodomain 1 (Homo sapiens), please?
A: Active

Q: So what FRET activity (<50 uM) did `COc1cc(OC)c2c(=O)[nH]c(-c3cc(C)c(OCCOC(=O)NC4CCCCC4)c(C)c3)nc2c1` get with Brd4 bromodomain 1 (Homo sapiens)?
A: Active

Q: Which measured FRET activity (<50 uM) belongs to `COc1ccc(-c2nc3cc(OC)cc(OC)c3c(=O)[nH]2)cc1` , tested on Brd4 bromodomain 1 (Homo sapiens)?
A: Inactive

Q: # query: FRET activity (<50 uM) | item `NC(=O)COc1ccc(-c2nc3ccccc3c(=O)[nH]2)cc1` | system: Brd4 bromodomain 1 (Homo sapiens)
A: Inactive

----------
TARGET_OR_SYSTEM: Brd4 bromodomain 1 (Homo sapiens)
Construct: made in house; host or cells: E. coli BL21(DE3)
ASSAY_NOTES: Inhibition of binding of tetra-acetylated histone H4 and Brd4 bromodomain 1 by TR-FRET
PROTOCOL_CONDITIONS: His-tagged bromodomain 200 nM, biotinylated tetra-acetylated histone H4 peptide 25-50 nM, 2 hours at room temperature
MEASURED_ATTRIBUTE: FRET activity (<50 uM)

Example entries and their recorded answers appear below.
>  <CHEMICAL_STRUCTURE>
COc1cc(OC)c2c(=O)[nH]c(-c3ccc(CN4CCOCC4)cc3)nc2c1

>  <MEASURED_ATTRIBUTE>
FRET activity (<50 uM)

>  <OBSERVED>
Active

$$$$
>  <CHEMICAL_STRUCTURE>
Cc1cc(-c2nc3ccccc3c(=O)[nH]2)cc(C)c1OCCO

>  <MEASURED_ATTRIBUTE>
FRET activity (<50 uM)

>  <OBSERVED>
Inactive

$$$$
>  <CHEMICAL_STRUCTURE>
COc1cc(OC)c2c(=O)[nH]c(-c3cc(C)cc(C)c3)nc2c1

>  <MEASURED_ATTRIBUTE>
FRET activity (<50 uM)

>  <OBSERVED>
Active

$$$$
>  <CHEMICAL_STRUCTURE>
COc1cc(OC)c2c(=O)[nH]c(-c3ccc(O)cc3)nc2c1

>  <MEASURED_ATTRIBUTE>
FRET activity (<50 uM)

>  <OBSERVED>
Active

$$$$

Lab note: next compound to report on.
Q: Field request: FRET activity (<50 uM) | item: `COc1cc(OC)cc(-c2nc3cc(OC)cc(OC)c3c(=O)[nH]2)c1`
A: Inactive

----------
TARGET_OR_SYSTEM: Brd4 bromodomain 1 (Homo sapiens, UniProt O60885)
Construct: made in house; host or cells: E. coli BL21(DE3)
ASSAY_NOTES: Inhibition of binding of tetra-acetylated histone H4 and Brd4 bromodomain 1 by TR-FRET
PROTOCOL_CONDITIONS: His-tagged bromodomain 200 nM, biotinylated tetra-acetylated histone H4 peptide 25-50 nM, 2 hours at room temperature
MEASURED_ATTRIBUTE: FRET activity (<50 uM)

Observe how each entry below is paired with its result.
>  <CHEMICAL_STRUCTURE>
COc1cc(OC)c2c(=O)[nH]c(-c3cc(C)c(OCC(C)(C)O)c(C)c3)cc2c1

>  <MEASURED_ATTRIBUTE>
FRET activity (<50 uM)

>  <OBSERVED>
Active

$$$$
>  <CHEMICAL_STRUCTURE>
COc1cc(OC)c2c(=O)[nH]c(-c3ccccc3Cl)nc2c1

>  <MEASURED_ATTRIBUTE>
FRET activity (<50 uM)

>  <OBSERVED>
Inactive

$$$$
>  <CHEMICAL_STRUCTURE>
COc1cc(OC)c2c(=O)nc(-c3cc(C)c(O)c(C)c3)n(C)c2c1

>  <MEASURED_ATTRIBUTE>
FRET activity (<50 uM)

>  <OBSERVED>
Active

$$$$
>  <CHEMICAL_STRUCTURE>
COc1cc(OC)c2c(=O)[nH]c(-c3ccc(OCC(=O)O)c(OC)c3)nc2c1

>  <MEASURED_ATTRIBUTE>
FRET activity (<50 uM)

>  <OBSERVED>
Active

$$$$
>  <CHEMICAL_STRUCTURE>
COc1cc(OC)c2c(=O)[nH]c(-c3ccc(OCCO)c(Cl)c3)nc2c1

>  <MEASURED_ATTRIBUTE>
FRET activity (<50 uM)

>  <OBSERVED>
Inactive

$$$$
>  <CHEMICAL_STRUCTURE>
COc1cc(OC)c2c(=O)[nH]c(-c3ccc(N4CCOCC4)cc3)nc2c1

>  <MEASURED_ATTRIBUTE>
FRET activity (<50 uM)

>  <OBSERVED>
Active

$$$$

Q: Bench note: what FRET activity (<50 uM) did `COc1cc(OC)c2c(=O)[nH]c(-c3cc(C)c(OCCNS(=O)(=O)c4ccc(C)cc4)c(C)c3)nc2c1` show?
A: Inactive

Q: Tell me the measured FRET activity (<50 uM) of `O=C(O)COc1ccc(-c2nc3ccccc3c(=O)[nH]2)cc1` , please.
A: Inactive
